testedOn: Cdk2(2-298) (Homo sapiens)
Construct: Biotinylated N-terminal avi-tagged Cdk2(2-298) or Cdk1(1-297) was immobilized
assayProtocol: Surface Plasmon Resonance (SPR) compound interaction, Biacore 8K
settings: single-cycle kinetics (SCK, "S"), dissociation 1800 sec, read-out: Activity rating (KD)
pKd: −log10 of the molar value.
recordedEndpoint: pKd

cpdSmiles | testedOn | pKd
N[C@H]1CC[C@H](Nc2nccc(-c3cnccc3Oc3cc(Cl)c(NS(=O)(=O)Cc4ccccc4)cc3F)n2)CC1 | Cdk2(2-298) (Homo sapiens) | 6.00 to 7.00
N[C@H]1CC[C@H](Nc2nccc(-c3cnccc3Oc3ccc(NS(=O)(=O)Cc4ccccc4)cc3F)n2)CC1 | Cdk2(2-298) (Homo sapiens) | 5.30 to 6.00
O=S(=O)(Nc1ccc(Oc2ccncc2-c2ccnc(NC3CN(CCO)C3)n2)c(F)c1)c1ccccc1Cl | Cdk2(2-298) (Homo sapiens) | 6.00 to 7.00
O=S(=O)(Nc1ccc(Oc2ccncc2-c2ccnc(N[C@H]3CCCNC3)n2)c(F)c1)c1cccc2ccccc12 | Cdk2(2-298) (Homo sapiens) | ≥ 8.00
N[C@H]1CC[C@H](Nc2nccc(-c3ccccc3Oc3ccc(NS(=O)(=O)c4ccccc4)cc3F)n2)CC1 | Cdk2(2-298) (Homo sapiens) | 7.00 to 7.96

For the 2 compounds below, give their pKd values.
1. COCCOCCN1CC(Nc2nccc(-c3cnccc3Oc3ccc(NS(=O)(=O)c4ccccc4Cl)cc3F)n2)C1
2. CN1CC[C@H](Nc2nccc(-c3cnccc3Oc3ccc(NS(=O)(=O)c4ccccc4Cl)cc3F)n2)C1

## Output
1. 6.00 to 7.00
2. 6.00 to 7.00

====

testedOn: Cdk2(2-298) (Homo sapiens)
Construct: Biotinylated N-terminal avi-tagged Cdk2(2-298) or Cdk1(1-297) was immobilized
assayProtocol: Surface Plasmon Resonance (SPR) compound interaction, Biacore 8K
settings: single-cycle kinetics (SCK, "S"), dissociation 1800 sec, read-out: Activity rating (KD)
pKd: −log10 of the molar value.
Could you please report measured pKd for the items listed next?

cpdSmiles | recordedEndpoint | recordedMeasurement
N[C@H]1CC[C@H](Nc2nccc(-c3cnccc3Oc3ccc(NS(=O)(=O)C45CC6CC(CC(C6)C4)C5)cc3F)n2)CC1 | pKd | < 5.30
O=S(=O)(Nc1ccc(Oc2ccncc2-c2ccnc(NC3CC4(CNC4)C3)n2)c(F)c1)c1ccccc1Cl | pKd | ≥ 8.00
O=S(=O)(Nc1ccc(Oc2ccncc2-c2ccnc(NC3CNC3)n2)c(F)c1)c1ccccc1Cl | pKd | 7.00 to 7.96

// below: pKd requested for another molecule
## Input For the molecule `Cc1cc(C)c(S(=O)(=O)Nc2ccc(Oc3ccncc3-c3ccnc(N[C@H]4CC[C@H](N)CC4)n3)c(F)c2)c(C)c1` , what pKd is on record?
## Output 6.00 to 7.00

====

testedOn: Cdk2(2-298) (Homo sapiens, UniProt P24941)
Construct: Biotinylated N-terminal avi-tagged Cdk2(2-298) or Cdk1(1-297) was immobilized
assayProtocol: Surface Plasmon Resonance (SPR) compound interaction, Biacore 8K
settings: single-cycle kinetics (SCK, "S"), dissociation 1800 sec, read-out: Activity rating (KD)
pKd: −log10 of the molar value.
recordedEndpoint: pKd

Please review the following examples before continuing.
compound | pKd
N[C@H]1CC[C@H](Nc2nccc(-c3cnccc3Oc3ccc(NS(=O)(=O)c4cccc5c4CCCC5)cc3F)n2)CC1 [Compound 57] | 6.00 to 7.00
N[C@H]1CC[C@H](Nc2nccc(-c3cnccc3Oc3ccc(NS(=O)(=O)c4cccs4)cc3F)n2)CC1 [Compound 29] | 7.00 to 7.96
N#Cc1ccc(Oc2ccc(NS(=O)(=O)c3ccccc3Cl)cc2F)c(-c2ccnc(N[C@H]3CC[C@H](N)CC3)n2)c1 [Compound 10] | 7.00 to 7.96
N[C@H]1CC[C@H](Nc2nccc(-c3cnccc3Oc3ccc(NS(=O)(=O)c4c(F)cccc4F)cc3F)n2)CC1 [Compound 26] | ≥ 8.00
Cc1cc2cc(S(=O)(=O)Nc3ccc(Oc4ccncc4-c4ccnc(N[C@H]5CC[C@H](N)CC5)n4)c(F)c3)ccc2[nH]1 [Compound 45] | < 5.30
N#Cc1ccc(S(=O)(=O)Nc2ccc(Oc3ccncc3-c3ccnc(N[C@H]4CC[C@H](N)CC4)n3)c(F)c2)cc1 [Compound 30] | 6.00 to 7.00
N[C@H]1CC[C@H](Nc2nccc(-c3cnccc3Oc3ccc(NS(=O)(=O)c4ccccc4Br)cc3F)n2)CC1 [Compound 53] | ≥ 8.00
O=S(=O)(Nc1ccc(Oc2ccncc2-c2ccnc(N[C@H]3CCCNC3)n2)c(F)c1)c1ccccc1Cl [Compound 34] | ≥ 8.00
COc1ccc(S(=O)(=O)Nc2ccc(Oc3ccncc3-c3ccnc(N[C@H]4CC[C@H](N)CC4)n3)c(F)c2)c(C)c1C [Compound 43] | 7.00 to 7.96
N[C@H]1CC[C@H](Nc2nccc(-c3cnccc3Oc3ccc(NS(=O)(=O)c4ccc(CCO)cc4F)cc3F)n2)CC1 [Compound 83] | 6.00 to 7.00

Each compound below has a recorded value; state its pKd.
1. O=S(=O)(Nc1ccc(Oc2ccncc2-c2ccnc(N[C@H]3CCCNC3)n2)c(F)c1)c1ccccc1 [Compound 59]
2. O=S(=O)(Nc1ccc(Oc2ccncc2-c2ccnc(NCCOCCO)n2)c(F)c1)c1ccccc1Cl [Compound 87]
3. N[C@H]1CC[C@H](Nc2nccc(-c3cnccc3Oc3ccc(NS(=O)(=O)c4ccccc4Cl)c(F)c3)n2)CC1 [Compound 79]
4. C=Cc1ccc(-c2ccnc(N[C@H]3CC[C@H](N)CC3)n2)c(Oc2ccc(NS(=O)(=O)c3ccccc3Cl)cc2F)c1 [Compound 21]
5. COc1ccccc1S(=O)(=O)Nc1ccc(Oc2ccncc2-c2ccnc(N[C@H]3CC[C@H](N)CC3)n2)c(F)c1 [Compound 27]

## Output
1: 7.00 to 7.96; 2: 6.00 to 7.00; 3: ≥ 8.00; 4: 7.00 to 7.96; 5: 7.00 to 7.96

Reference source for all entries: patent US20260234112A1
